- Tested on: Staph. aureus MS 27
- EXPERIMENT NOTES: MIC (Table 4)
- Type: cell-based
- EXPERIMENTAL CONDITIONS: 10^8 cells/ml; unit assumed
Field: MIC Value. Provide a value for each of the compounds that follow.
Your answer should be a plain number; it is taken to be in µg/mL.

The reported MIC Value of the compound CC(=O)OCC1=C(C(=O)O)N2C(=O)[C@@H](NC(=O)CSc3nc(C[C@H](N)C(=O)O)c[nH]3)[C@H]2SC1 was 12.5

The reported MIC Value of the compound Cn1nnnc1SCC1=C(C(=O)O)N2C(=O)[C@@H](NC(=O)CSc3nc(C[C@H](N)C(=O)O)c[nH]3)[C@H]2SC1 [drawing 11] was 12.5

The reported MIC Value of the compound Cc1nnc(SCC2=C(C(=O)O)N3C(=O)[C@@H](NC(=O)CSc4nc(C[C@H](N)C(=O)O)c[nH]4)[C@H]3SC2)s1 [drawing 13] was 25

The reported MIC Value of the compound CC1=C(C(=O)O)N2C(=O)[C@@H](NC(=O)[C@H](N)c3ccccc3)[C@H]2SC1 [Cephalexin, reference compound] was 50
